- TEST_PROTOCOL: Mouse PK (AUC)
- Format: in vivo
- TEST_CONTEXT: in vivo, oral, 0.4 mg/kg; mouse, 0.4 mpk
MEASURED_METRIC: AUC (ng·h/mL)
Numbers only, in ng·h/mL.

Could you share which AUC value was measured for Nc1ncn(C2CC(O)C(CO)S2)c(=O)n1 (stereo not shown) [Aza-T-dCyd, 4′-Thio-5-aza-2′-deoxycytidine] ? 55.4

----------
- TEST_PROTOCOL: Mouse PK (AUC)
- Type: in vivo
- TEST_CONTEXT: in vivo, oral, 10 mg/kg; mouse, 10 mpk
MEASURED_METRIC: AUC (ng·h/mL)
Answers are plain numbers, in ng·h/mL.

Could you share which AUC value was measured for Nc1ncn(C2CC(O)C(CO)S2)c(=O)n1 (stereo not shown) ? 1340

----------
Task for the reader: assign each of the following compounds its reported C0.
- TEST_PROTOCOL: Animal PK, NCA parameters, mouse
- TEST_CONTEXT: in vivo, iv, 1 mg/kg
Give bare numbers, in ng/mL.

>  <COMPOUND>
Nc1ncn(C2CC(O)C(CO)S2)c(=O)n1 (centres unmarked) [Aza-T-dCyd, 4′-Thio-5-aza-2′-deoxycytidine]

>  <MEASUREMENT_UNITS>
ng/mL

>  <NUMERIC_RESULT>
616

$$$$

Could you share which C0 value was measured for Nc1ncn([C@H]2C[C@H](O)[C@@H](CO)O2)c(=O)n1 [decitabine, reference compound] ? 579

----------
- TEST_PROTOCOL: Mouse PK (AUC)
- Type: in vivo
- TEST_CONTEXT: in vivo, oral, 1 mg/kg; mouse, 1.0 mpk
MEASURED_METRIC: AUC (ng·h/mL)
One number for each entry, in ng·h/mL.

Could you share which AUC value was measured for Nc1ncn(C2CC(O)C(CO)S2)c(=O)n1 (stereo not shown) [Aza-T-dCyd, 4′-Thio-5-aza-2′-deoxycytidine] ? 136
